target: hM1 (human Muscarinic receptor subtype 1) (Homo sapiens); construct: expressed in transfected cells; host or cells: CHO cells (Chinese hamster ovary cells, ATCC); assay: Human M1 calcium mobilization FLIPR assay; format: cell-based; conditions: hM1 expressed in CHO cells, intracellular Ca2+ release, read-out: hM1 EC50
Sequence (P11229 whole entry): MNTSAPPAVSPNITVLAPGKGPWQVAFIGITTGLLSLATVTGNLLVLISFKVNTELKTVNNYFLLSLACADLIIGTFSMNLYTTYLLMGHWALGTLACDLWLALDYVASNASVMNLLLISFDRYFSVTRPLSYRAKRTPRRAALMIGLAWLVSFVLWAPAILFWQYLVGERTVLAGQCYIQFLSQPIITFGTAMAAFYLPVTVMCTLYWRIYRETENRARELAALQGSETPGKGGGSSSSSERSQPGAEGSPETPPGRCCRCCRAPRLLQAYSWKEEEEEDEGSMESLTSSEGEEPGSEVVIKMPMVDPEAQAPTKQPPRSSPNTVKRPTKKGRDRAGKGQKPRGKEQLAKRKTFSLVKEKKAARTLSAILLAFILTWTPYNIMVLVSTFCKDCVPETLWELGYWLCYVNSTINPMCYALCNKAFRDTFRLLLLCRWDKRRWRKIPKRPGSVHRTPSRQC
result-type: EC50 (nM)
Number in nM, nothing else.

CC1(N2CCC(n3c(=O)[nH]c4ccccc43)CC2)CCN(C(=O)OCCF)C1 (single isomer, unassigned) [Example 31] ... 13.1

State, for hM1 (human Muscarinic receptor subtype 1) (Homo sapiens), measured EC50 of the compound listed here: COC(=O)N1CCC(C)(N2CCC(N3C(=O)Cc4ccc(C)cc43)CC2)C1 (single isomer, unassigned) [Example 67]
20.9

Look up and report measured EC50 (hM1 (human Muscarinic receptor subtype 1) (Homo sapiens)) for the following compound: CC#CCOC(=O)N1CCC(C)(N2CCC(n3c(=O)[nH]c4cc(C)ccc43)CC2)C1 (single isomer, unassigned) [Example 19]
324
